- System: MT2 cells
- Experiment Notes: cellular toxicity in uninfected MT2 cells (Southern Research Institute)
- Type: cell-based
- Protocol Conditions: Southern Research Institute (footnote g), read-out: TD50 (the source's name)
Reported Property: CC50

1. Cc1cn(C[C@@H](CN=[N+]=[N-])OCP(=O)(O)O)c(=O)[nH]c1=O [(S)-2'-azidomethyl-PMET] | > 500 µM

----------
# Lookup of reported CC50 at 72 h keyed by entry
- Experiment Notes: cell growth inhibition assay in CEM-SS cells
- Format: cell-based
- Protocol Conditions: human, cem-ss cells; 50 percent decrease in cell count vs control at day three (72 hours)
- Description: The cytotoxicity of PMEG, (R)2'-vinyl-PMEG, (S)-2'-vinyl-PMEG and (R)-2'-azidomethyl-PMEG was also determined by the cell growth inhibition assay in CEM-SS cells. *CC50 is the concentration of drug that causes a 50 percent decrease in […] 1. Choose proper range of the concentrations of the drug to be evaluated. […] 7. […] At time zero, cells in 4 wells from the control (no drug added) are counted 9. At 24, 48, 72 and 96 hr post drug addition, both drug treated and control cells are counted […]
Reported Property: CC50 at 72 h (µM)

1) C=C[C@@H](Cn1cnc2c(O)nc(N)nc21)OCP(=O)(O)O [(S)-2'-vinyl-PMEG] | 1600
2) C=C[C@H](Cn1cnc2c(O)nc(N)nc21)OCP(=O)(O)O [(R)-2'-vinyl-PMEG] | 1600
3) Nc1nc2c(ncn2CCOCP(=O)(O)O)c(=O)[nH]1 [PMEG, 9-[2-(phosphonomethoxy)ethyl]guanine, reference compound] | 2.4
4) [N-]=[N+]=NC[C@@H](Cn1cnc2c(O)nc(N)nc21)OCP(=O)(O)O [(R)-2'-azidomethyl-PMEG] | 1400

----------
- Tested on: human immunodeficiency virus (HIV RF strain) in CEM-SS cells
- Experiment Notes: XTT assay, anti-HIV RF activity in infected CEM-SS cells, six days post infection
- Format: cell-based
- Protocol Conditions: HIV RF, CEM-SS cells
# Lookup of reported SI (Selectivity Index: Ratio of TD50 to ED50) keyed by entry
Reported Property: SI (Selectivity Index: Ratio of TD50 to ED50)

1) [N-]=[N+]=NC[C@H](Cn1cnc2c(=O)[nH]c(N)nc21)OCP(=O)(O)O [(S)-2'-azidomethyl-PMEG] | > 20
2) Nc1nc2c(ncn2CCOCP(=O)(O)O)c(=O)[nH]1 [PMEG, 9-[2-(phosphonomethoxy)ethyl]guanine, reference compound] | 30
3) [N-]=[N+]=NCC(Cn1cnc2c(=O)[nH]c(N)nc21)OCP(=O)(O)O (racemic) [(R,S)-2'-azidomethyl-PMEG] | > 125
4) C=CC(Cn1cnc2c(=O)[nH]c(N)nc21)OCP(=O)(O)O (racemic) [(R,S)-2'vinyl-PMEG] | > 51
5) [N-]=[N+]=NC[C@@H](Cn1cnc2c(O)nc(N)nc21)OCP(=O)(O)O [(R)-2'-azidomethyl-PMEG] | > 200

----------
# Lookup of reported CC50 at 144 h keyed by entry
- Experiment Notes: XTT assay, cellular toxicity in uninfected CEM-SS cells
- Type: cell-based
- Protocol Conditions: human, cem-ss cells
Reported Property: CC50 at 144 h

1) Nc1nc2c(ncn2CCOCP(=O)(O)O)c(=O)[nH]1 [PMEG, 9-[2-(phosphonomethoxy)ethyl]guanine, reference compound] | 15 µM
2) [N-]=[N+]=NCC(Cn1cnc2c(=O)[nH]c(N)nc21)OCP(=O)(O)O (racemic) [(R,S)-2'-azidomethyl-PMEG] | > 1000 µM
3) C=C[C@H](Cn1cnc2c(O)nc(N)nc21)OCP(=O)(O)O [(R)-2'-vinyl-PMEG] | > 1000 µM
4) C=CC(Cn1cnc2c(=O)[nH]c(N)nc21)OCP(=O)(O)O (racemic) [(R,S)-2'vinyl-PMEG] | > 1000 µM
5) [N-]=[N+]=NC[C@@H](Cn1cnc2c(O)nc(N)nc21)OCP(=O)(O)O [(R)-2'-azidomethyl-PMEG] | > 1000 µM
6) [N-]=[N+]=NC[C@H](Cn1cnc2c(=O)[nH]c(N)nc21)OCP(=O)(O)O [(S)-2'-azidomethyl-PMEG] | > 1000 µM
7) [N-]=[N+]=NCC[C@@H](Cn1cnc2c(O)nc(N)nc21)OCP(=O)(O)O [(S)-2'-azidoethyl-PMEG] | > 500 µM

All figures here come from patent US5696263A.
